test system: primary human hepatic stellate cells (donor 1); test: PSMB2 reference mRNA level vs DMSO (fold); higher = more PSMB2 expression; details: 48 h
Counter-ions that a name gives are not always drawn.
I'd appreciate it if you could supply PSMB2 reference mRNA level values for the items below.
Give the value as a plain number.

Q) Which value of PSMB2 reference mRNA level has been reported for CN1CCC(=C2c3ccccc3C=Cc3ccccc32)CC1 [Cyproheptadine] (33.3333 µM) in the records?
A) 0.904

Q) Also N=C(N)SCCc1ccc(OCc2ccc([N+](=O)[O-])cc2)cc1 [KB-R7943 mesylate] (33.3333 µM) , if possible.
A) 0.61

Q) Also C[C@@H]1CN(CCCn2c3ccccc3c3ccccc32)C[C@H](C)N1 [Rimcazole dihydrochloride] (33.3333 µM) , if possible.
A) 0.0107

Q) Also OCCN1CCN(CCCN2c3ccccc3Sc3ccc(C(F)(F)F)cc32)CC1 (33.3333 µM) , if possible.
A) 0.145

Q) Also CC(/C=C/C(=O)NO)=C\[C@@H](C)C(=O)c1ccc(N(C)C)cc1 [Trichostatin A] (3.33333 µM) , if possible.
A) 1.36

Q) Also O=C(Nc1cc(C(F)(F)F)cc(C(F)(F)F)c1)c1cc(Cl)ccc1O (33.3333 µM) , if possible.
A) 1.2

Q) Also Cc1cnc(-c2cnc(NCCNc3ccc(C#N)cn3)nc2-c2ccc(Cl)cc2Cl)[nH]1 (33.3333 µM) , if possible.
A) 2.78

Q) Also C[C@]12CC[C@H](O)CC1=CC[C@@H]1[C@@H]2CC[C@]2(C)C(n3cnc4ccccc43)=CC[C@@H]12 [Galeterone] (33.3333 µM) , if possible.
A) 0.0945
